ASSAY_EXPLANATION: Permeability in Caco2 cells
Type: in vitro ADME
CONDITIONS: human, Caco-2; Caco2 cells, basal to apical
PROPERTY_MEASURED: Papp B→A (×10⁻⁶ cm/s)

>  <COMPOUND>
CCOc1ccc(-c2nnc(SCC(=O)Nc3cc(C)cc(C)c3)[nH]2)cc1

>  <RESULT_NUMBER>
16.2

$$$$

----------
The following compounds are listed with their measured IC50 values.
Test system: MDA-MB-231
ASSAY_EXPLANATION: Inhibition of cancer cell proliferation, Alamar Blue assay (MDA-MB-231)
Type: cell-based
CONDITIONS: Homo sapiens, Table 2A, Alamar Blue, 72 hours exposure, read-out: IC50s MDA-MB231
PROPERTY_MEASURED: IC50 (µM)

>  <COMPOUND>
CCOc1ccc(-c2nnc(SCC(=O)Nc3cc(OC)ccc3OC)[nH]2)cc1

>  <INEQUALITY_SIGN>
=

>  <RESULT_NUMBER>
15.7

$$$$
>  <COMPOUND>
CCOc1ccc(-c2nnc(SCC(=O)Nc3ccc(OC)cc3C)[nH]2)cc1

>  <INEQUALITY_SIGN>
=

>  <RESULT_NUMBER>
10.6

$$$$
>  <COMPOUND>
CCOc1ccc(-c2nnc(SCC(=O)Nc3ccc(C)cc3C)[nH]2)cc1

>  <INEQUALITY_SIGN>
=

>  <RESULT_NUMBER>
12

$$$$
>  <COMPOUND>
CCOc1cccc(-c2nnc(SCC(=O)Nc3cc(C)cc(C)c3)[nH]2)c1

>  <INEQUALITY_SIGN>
=

>  <RESULT_NUMBER>
88

$$$$
>  <COMPOUND>
COc1cccc(-c2nnc(SCC(=O)Nc3cc(C)cc(C)c3)[nH]2)c1

>  <INEQUALITY_SIGN>
=

>  <RESULT_NUMBER>
79

$$$$
>  <COMPOUND>
COc1ccc(-c2nnc(SCC(=O)Nc3c(F)cccc3F)[nH]2)cc1

>  <INEQUALITY_SIGN>
>

>  <RESULT_NUMBER>
100

$$$$
>  <COMPOUND>
CCOc1ccc(-c2nnc(SCC(=O)Nc3cc(C)cc(C)c3)[nH]2)cc1

>  <INEQUALITY_SIGN>
=

>  <RESULT_NUMBER>
18.5

$$$$
>  <COMPOUND>
CCCOc1ccc(-c2nnc(SCC(=O)Nc3cc(C)ccc3F)[nH]2)cc1

>  <INEQUALITY_SIGN>
=

>  <RESULT_NUMBER>
9

$$$$
>  <COMPOUND>
COc1ccc(-c2nnc(SCC(=O)Nc3cccc(C)c3C)[nH]2)cc1

>  <INEQUALITY_SIGN>
=

>  <RESULT_NUMBER>
68.2

$$$$

These entries and their values trace back to patent US20110257211A1.
